# target desc: Acetylcholinesterase (Homo sapiens, UniProt P22303)
# Sequence (P22303 whole entry): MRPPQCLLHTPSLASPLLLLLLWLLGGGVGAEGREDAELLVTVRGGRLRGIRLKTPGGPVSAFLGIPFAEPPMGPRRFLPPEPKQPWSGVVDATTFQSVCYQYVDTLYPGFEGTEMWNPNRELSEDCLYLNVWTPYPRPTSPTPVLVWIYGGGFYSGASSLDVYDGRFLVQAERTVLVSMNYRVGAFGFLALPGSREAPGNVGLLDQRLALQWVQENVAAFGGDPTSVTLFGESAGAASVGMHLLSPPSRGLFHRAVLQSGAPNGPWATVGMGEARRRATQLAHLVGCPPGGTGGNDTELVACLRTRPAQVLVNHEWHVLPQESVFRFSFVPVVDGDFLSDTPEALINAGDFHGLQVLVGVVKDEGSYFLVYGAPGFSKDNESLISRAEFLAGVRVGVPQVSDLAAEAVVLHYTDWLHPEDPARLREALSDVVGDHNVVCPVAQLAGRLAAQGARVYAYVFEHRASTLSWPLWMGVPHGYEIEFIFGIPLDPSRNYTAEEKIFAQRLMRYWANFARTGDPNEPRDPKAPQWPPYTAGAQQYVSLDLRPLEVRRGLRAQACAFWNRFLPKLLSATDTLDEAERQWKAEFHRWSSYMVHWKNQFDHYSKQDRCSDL
# method summary: Inhibition of human AChE using acetylthiocholine iodide as substrate at 100 uM measured for 1 min by spectrophotometric based Ellman's method relative to control
Reported values of inhibition for individual entries
Numbers only; they are read as %.

>>> df
                                test_smiles  readout_label  unit_text  assay_result
0  COc1c2c(cc3c1OCO3)[C@]13C=C[C@H](OC)C[C@@H]1[N@](C2)C[C@H]3OC(=O)c1cccc(C)c1     inhibition          %            41
1  COc1c2c(cc3c1OCO3)[C@]13C=C[C@H](OC)C[C@@H]1[N@](C2)C[C@H]3OC(=O)C(C)C     inhibition          %             3
2  COc1c2c(cc3c1OCO3)[C@]13C=C[C@H](OC)C[C@@H]1[N@](C2)C[C@H]3OC(=O)c1ccco1     inhibition          %            12

Input: // query inhibition value for entry `COc1c2c(cc3c1OCO3)[C@]13C=C[C@H](OC)C[C@@H]1[N@](C2)C[C@H]3OC(=O)c1ccc([N+](=O)[O-])cc1`
Output: 31

Input: Given the compound `COc1c2c(cc3c1OCO3)[C@]13C=C[C@H](OC)C[C@@H]1[N@](C2)C[C@H]3OC(=O)c1ccc(C)cc1` , what is its reported inhibition?
Output: 28

Input: Data request, read-out inhibition, for `COc1c2c(cc3c1OCO3)[C@]13C=C[C@H](OC)C[C@@H]1[N@](C2)C[C@H]3OC(=O)c1ccccc1`
Output: 25

Input: Field request: inhibition | item: `COc1c2c(cc3c1OCO3)[C@]13C=C[C@H](OC)C[C@@H]1[N@](C2)C[C@H]3O`
Output: 4

Input: Sample `COc1c2c(cc3c1OCO3)[C@]13C=C[C@H](OC)C[C@@H]1[N@](C2)C[C@H]3OC(C)=O` — what was its inhibition?
Output: 4
